Below is a list of entries, each paired with its recorded IC50 value.
target: IL-17A/A (Homo sapiens, UniProt Q16552); assay: IL-17A/A HEK-Blue Cell Assay; type: cell-based; settings: HEK-Blue IL-17 reporter cells, IL-17A/A stimulation, 20 hours, SEAP readout; read-out: IL17 AA HEK-5 pIC50 (converted)

{"COMPOUND STRING": "CCOC(=O)N1CC[C@H]1C(=O)N[C@@H](C(=O)N1CCN(C)CC1)[C@@H](C)c1ccc(NC(=O)[C@@H](NC(=O)C2(F)CC2)C(C2CC2)C2CC2)c(F)c1", "EXPERIMENTAL TARGET": "IL-17A/A (Homo sapiens, UniProt Q16552)", "IC50": "10 to 100 nM"}
{"COMPOUND STRING": "CCn1nccc1C(=O)N[C@H](C(=O)Nc1ccc([C@H](C)[C@@H](NC(=O)C(C)(F)F)C(=O)N2CCN(C)[C@H](C)C2)cc1F)C(C1CC1)C1CC1", "EXPERIMENTAL TARGET": "IL-17A/A (Homo sapiens, UniProt Q16552)", "IC50": "< 10 nM"}
{"COMPOUND STRING": "CCC(=O)N[C@@H](C(=O)N1CCN(C)CC1)[C@@H](C)c1ccc(NC(=O)[C@@H](NC(=O)c2ccnn2C(C)C)C(C2CC2)C2CC2)c(F)c1", "EXPERIMENTAL TARGET": "IL-17A/A (Homo sapiens, UniProt Q16552)", "IC50": "< 10 nM"}
{"COMPOUND STRING": "CO[C@@H](C)C(=O)N[C@@H](C(=O)N1CCN(C)[C@H](C)C1)[C@@H](C)c1ccc(NC(=O)[C@@H](NC(=O)c2ccnn2C(C)C)C(C2CC2)C2CC2)c(F)c1", "EXPERIMENTAL TARGET": "IL-17A/A (Homo sapiens, UniProt Q16552)", "IC50": "< 10 nM"}

Consider the record given below.
# IC50 lookup, item CO[C@@H](C)C(=O)N[C@@H](C(=O)N1CCN(C)CC1)[C@@H](C)c1ccc(NC(=O)[C@@H](NC(=O)c2ccnn2C(C)C)C(C2CC2)C2CC2)c(F)c1
< 10 nM

* * *

biological target: IL-17A/A (Homo sapiens, UniProt Q16552); test: IL-17A/A HEK-Blue Cell Assay; format: cell-based; conditions: IL17 AA HEK-5 pIC50, HEK-Blue IL-17 reporter cells, IL-17A/A stimulation, 20 hours, SEAP readout
pIC50: −log10 of the molar value.
PROPERTY MEASURED: pIC50

{"COMPOUND": "CCc1nonc1C(=O)N[C@H](C(=O)Nc1ccc([C@H](C)[C@@H](NC(=O)CF)C(=O)N2CCNC(CF)C2)cc1F)C(C1CC1)C1CC1 (single isomer, unassigned)", "OBSERVED MEASUREMENT": "7.00 to 8.00"}

Consider the record given below.
# pIC50 lookup, item CCn1nccc1C(=O)N[C@H](C(=O)Nc1ccc([C@H](C)[C@@H](NC(=O)CF)C(=O)N2CCN(C)[C@H](C)C2)cc1F)C(C1CC1)C1CC1
7.00 to 8.00

* * *

Target: IL-17A/F (Homo sapiens, UniProt Q16552+Q96PD4)
Sequence (Q16552 24-155): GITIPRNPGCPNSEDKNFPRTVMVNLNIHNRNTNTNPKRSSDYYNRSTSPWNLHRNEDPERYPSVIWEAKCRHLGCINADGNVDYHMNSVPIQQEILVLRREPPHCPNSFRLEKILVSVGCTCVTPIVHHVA
Sequence (Q96PD4 31-163): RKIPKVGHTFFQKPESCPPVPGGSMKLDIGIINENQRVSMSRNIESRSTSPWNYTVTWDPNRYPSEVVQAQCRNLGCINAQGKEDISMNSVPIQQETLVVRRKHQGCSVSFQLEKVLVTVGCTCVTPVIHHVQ
Assay: IL-17A/F HEK-Blue Cell Assay
Format: cell-based
Conditions: HEK-Blue IL-17 reporter cells, IL-17A/F stimulation, 20 hours, SEAP readout; read-out: IL17AF HEK Blue pIC50 (converted)
Below is a list of entries, each paired with its recorded IC50 value.

Take a look at these entries with their results.
{"MOLECULE": "CCOC(C)C(=O)N[C@@H](C(=O)N1CCN(C)CC1)[C@@H](C)c1ccc(NC(=O)[C@@H](NC(=O)c2ccnn2CC)C(C2CC2)C2CC2)c(F)c1 (single isomer, unassigned) [Compound 328]", "OBSERVED MEASUREMENT": "0.01 to 0.1 µM"}
{"MOLECULE": "CCn1nccc1C(=O)N[C@H](C(=O)Nc1ccc(C(C(NC(=O)[C@H](C)OC)C(=O)N2CCN(C)[C@H](C)C2)C(F)(F)F)cc1F)C(C1CC1)C1CC1 (single isomer, unassigned) [Compound 355]", "OBSERVED MEASUREMENT": "0.1 to 10 µM"}
{"MOLECULE": "CCn1nccc1C(=O)N[C@H](C(=O)Nc1ccc([C@H](C)[C@@H](NC(=O)COC)C(=O)N2C[C@@H](C)N(C)C[C@H]2C)cc1F)C(C1CC1)C1CC1", "OBSERVED MEASUREMENT": "0.01 to 0.1 µM"}
{"MOLECULE": "COC(=O)N1CCC[C@H]1C(=O)N[C@@H](C(=O)N1CCN(C)CC1)[C@@H](C)c1ccc(NC(=O)[C@@H](NC(=O)C2(F)CC2)C(C2CC2)C2CC2)c(F)c1", "OBSERVED MEASUREMENT": "0.1 to 10 µM"}
{"MOLECULE": "COC(=O)N1CC[C@H]1C(=O)N[C@@H](C(=O)N1CCN(C)CC1)[C@@H](C)c1ccc(NC(=O)[C@@H](NC(=O)C2(F)CC2)C(C2CC2)C2CC2)c(F)c1", "OBSERVED MEASUREMENT": "0.1 to 10 µM"}

# IC50 lookup, item CCn1nccc1C(=O)N[C@H](C(=O)Nc1ccc([C@H](C)[C@@H](NC(=O)C(C2CC2)C2CC2)C(=O)N2CCN(C)CC2)cc1F)C(C1CC1)C1CC1
0.01 to 0.1 µM

And what about the molecule CCn1nccc1C(=O)N[C@H](C(=O)Nc1ccc([C@H](C)[C@@H](NC(=O)C(C2CC2)C2CC2)C(=O)N2CCN(C)[C@H](C)C2)cc1F)C(C1CC1)C1CC1 ?
0.01 to 0.1 µM

And what about the molecule CCOC(C)C(=O)N[C@@H](C(=O)N1CCN(C)[C@H](C)C1)[C@@H](C)c1ccc(NC(=O)[C@@H](NC(=O)c2ccnn2CC)C(C2CC2)C2CC2)c(F)c1 (single isomer, unassigned) [Compound 323] ?
0.01 to 0.1 µM

And what about the molecule CCn1nccc1C(=O)N[C@H](C(=O)Nc1ccc([C@H](C)[C@@H](NC(=O)N(C)C2CC2)C(=O)N2CCN(C)[C@H](C)C2)cc1F)C(C1CC1)C1CC1 ?
< 0.01 µM

And what about the molecule CCn1nccc1C(=O)N[C@H](C(=O)Nc1ccc([C@H](C)[C@@H](NC(=O)C(C)C2CC2)C(=O)N2CCN(C)[C@H](C)C2)cc1F)C(C1CC1)C1CC1 (single isomer, unassigned) [Compound 310] ?
0.01 to 0.1 µM

* * *

Target: IL-17A/A (Homo sapiens)
Assay: IL-17A/A HEK-Blue Cell Assay
Type: cell-based
Conditions: HEK-Blue IL-17 reporter cells, IL-17A/A stimulation, 20 hours, SEAP readout; read-out: IL17 AA HEK-5 pIC50 (converted)
Experimental: The HEK-Blue IL-17 reporter cell line (Fisher #NC1408637) was used for cell-based IL-17A/A inhibition assays. Cells were grown and prepared for assays according to the manufacturer's instructions. […] Media from the cells is then added to a development reagent (Quanti-Blue Substrate, Fisher #NC9711613), and read at A630. […]
PROPERTY MEASURED: IC50

Take a look at these entries with their results.
{"COMPOUND": "CCC(=O)N[C@@H](C(=O)N1C[C@@H](C)N(C)C[C@H]1C)[C@@H](C)c1ccc(NC(=O)[C@@H](NC(=O)C2(F)CC2)C(C2CC2)C2CC2)c(F)c1 [Compound 288]", "PROPERTY MEASURED": "IC50", "OBSERVED MEASUREMENT": "< 10 nM"}
{"COMPOUND": "CCn1nccc1C(=O)N[C@H](C(=O)Nc1ccc([C@H](C)[C@@H](NC(=O)[C@H](C)N(C)c2ncncn2)C(=O)N2CCN(C)[C@H](C)C2)cc1F)C(C1CC1)C1CC1 [Compound 305]", "PROPERTY MEASURED": "IC50", "OBSERVED MEASUREMENT": "< 10 nM"}
{"COMPOUND": "COC(=O)N1CCC[C@H]1C(=O)N[C@@H](C(=O)N1CCN(C)CC1)[C@@H](C)c1ccc(NC(=O)[C@@H](NC(=O)C2(F)CC2)C(C2CC2)C2CC2)c(F)c1 [Compound 280]", "PROPERTY MEASURED": "IC50", "OBSERVED MEASUREMENT": "10 to 100 nM"}

// lookup IC50 | system=IL-17A/A (Homo sapiens) | key= CCC(=O)N[C@@H](C(=O)N1CCOCC1)[C@@H](C)c1ccc(NC(=O)[C@@H](NC(=O)c2ccnn2CCN2CCOCC2)C(C2CC2)C2CC2)c(F)c1 [Compound 253]
100 to 10000 nM

And what about the compound CCC(=O)N[C@@H](C(=O)N1CCN(C)CC1)[C@@H](C)c1ccc(NC(=O)[C@@H](NC(=O)c2nonc2CC)C(C2CC2)C2CC2)c(F)c1 [Compound 204] ?
< 10 nM
